Consider compounds characterized by their ΔTm with Casein kinase I isoform gamma-3 (Homo sapiens).

- COMPOUND: "CCN(CC)CCNC(=O)c1c(C)[nH]c(/C=C2\\C(=O)Nc3ccc(Cl)cc32)c1C [SU-11652]"
  ΔTm / °C: 3.8
- COMPOUND: "Cl.Cn1cc(C2=C(c3ccc4cc5n(c4c3)CCC(CN)C5)C(=O)NC2=O)c2ccccc21 (stereo not given)"
  ΔTm / °C: 0.6
- COMPOUND: "CN(C)CC1CCn2c(c(C3=C(c4c[nH]c5ccccc45)C(=O)NC3=O)c3ccccc32)C1 (stereo not given)"
  ΔTm / °C: 0.8
- COMPOUND: "O=C(O)Cc1ccc(O)c([N+](=O)[O-])c1"
  ΔTm / °C: 0.5
- COMPOUND: "Cc1nc2sccn2c(=O)c1CCN1CCC(=C(c2ccccc2)c2ccc(F)cc2)CC1"
  ΔTm / °C: 0.3
- COMPOUND: "CCOc1ccc(/C=C2/SC(=O)N(CCN)C2=O)cc1 [HIAZOLIDINEDIONE1]"
  ΔTm / °C: -0.1
- COMPOUND: "Cc1cc2ncc(-c3ccccc3)nc2cc1C"
  ΔTm / °C: 1.1
- COMPOUND: "CN(C)C[C@@H]1CCn2cc(c3ccccc32)C2=C(C(=O)NC2=O)c2cn(c3ccccc23)CCO1 [RUBOXISTAURIN]"
  ΔTm / °C: 0.5
- COMPOUND: "COc1ccc(COc2ccc(Cc3cnc(N)nc3N)cc2OC)cc1"
  ΔTm / °C: 0.5
- COMPOUND: "CCOc1cc2ncnc(Nc3cccc(Br)c3)c2cc1OCC"
  ΔTm / °C: -0.2

###

Consider compounds characterized by their ΔTm with Serine/threonine-protein kinase pim-1 (Homo sapiens) (UniProt P11309).
Sequence (P11309 whole entry, looked up): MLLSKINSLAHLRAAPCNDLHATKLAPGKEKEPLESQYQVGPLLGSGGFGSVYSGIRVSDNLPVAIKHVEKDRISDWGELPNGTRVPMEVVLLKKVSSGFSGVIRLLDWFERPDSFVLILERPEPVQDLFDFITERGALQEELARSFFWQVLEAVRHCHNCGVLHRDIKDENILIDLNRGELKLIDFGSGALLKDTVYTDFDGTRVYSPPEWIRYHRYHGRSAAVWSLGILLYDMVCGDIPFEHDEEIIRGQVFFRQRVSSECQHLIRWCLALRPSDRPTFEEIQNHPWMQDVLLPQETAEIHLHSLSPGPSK
REPORTED_METRIC: ΔTm (°C)

- SMILES_STRING: "C/C(O)=C(\\C#N)C(=O)Nc1cc(Br)ccc1Br"
  SYSTEM_NAME: "Serine/threonine-protein kinase pim-1 (Homo sapiens) (UniProt P11309)"
  OBSERVED_MEASUREMENT: 1.4
- SMILES_STRING: "CCN(CC)CCNC(=O)c1c(C)[nH]c(/C=C2\\C(=O)Nc3ccc(F)cc32)c1C"
  SYSTEM_NAME: "Serine/threonine-protein kinase pim-1 (Homo sapiens) (UniProt P11309)"
  OBSERVED_MEASUREMENT: 2.3
- SMILES_STRING: "CC(C)(C)n1nc(-c2cccc3ccccc23)c2c(N)ncnc21"
  SYSTEM_NAME: "Serine/threonine-protein kinase pim-1 (Homo sapiens) (UniProt P11309)"
  OBSERVED_MEASUREMENT: -0.2
- SMILES_STRING: "N#CCCc1ccc2c(c1)-c1[nH]c3ccc([N+](=O)[O-])cc3c1CC(=O)N2"
  SYSTEM_NAME: "Serine/threonine-protein kinase pim-1 (Homo sapiens) (UniProt P11309)"
  OBSERVED_MEASUREMENT: 1.9
- SMILES_STRING: "Nc1nc(Nc2ccc(S(N)(=O)=O)cc2)nn1C(=S)Nc1c(F)cccc1F"
  SYSTEM_NAME: "Serine/threonine-protein kinase pim-1 (Homo sapiens) (UniProt P11309)"
  OBSERVED_MEASUREMENT: 0.4
- SMILES_STRING: "Cn1cnc2c(NCc3ccccc3)nc(NCCO)nc21"
  SYSTEM_NAME: "Serine/threonine-protein kinase pim-1 (Homo sapiens) (UniProt P11309)"
  OBSERVED_MEASUREMENT: -1
- SMILES_STRING: "c1ccc(-c2n[nH]c3c2oc2ccccc23)cc1"
  SYSTEM_NAME: "Serine/threonine-protein kinase pim-1 (Homo sapiens) (UniProt P11309)"
  OBSERVED_MEASUREMENT: -0.5
- SMILES_STRING: "Ic1cccc(CSc2nnc(-c3ccncc3)o2)c1"
  SYSTEM_NAME: "Serine/threonine-protein kinase pim-1 (Homo sapiens) (UniProt P11309)"
  OBSERVED_MEASUREMENT: -1.5
- SMILES_STRING: "COc1cc(OC)c(/C=C2\\C(=O)Nc3ccccc32)c(OC)c1"
  SYSTEM_NAME: "Serine/threonine-protein kinase pim-1 (Homo sapiens) (UniProt P11309)"
  OBSERVED_MEASUREMENT: -1
- SMILES_STRING: "CN(C)S(=O)(=O)c1ccc2c(c1)/C(=C/c1cc3c([nH]1)CCCC3)C(=O)N2"
  SYSTEM_NAME: "Serine/threonine-protein kinase pim-1 (Homo sapiens) (UniProt P11309)"
  OBSERVED_MEASUREMENT: 0.5

###

- SYSTEM_NAME: Serine/threonine-protein kinase 26 (Homo sapiens) (UniProt Q9P289)
- Sequence (Q9P289 2-416 limits assumed): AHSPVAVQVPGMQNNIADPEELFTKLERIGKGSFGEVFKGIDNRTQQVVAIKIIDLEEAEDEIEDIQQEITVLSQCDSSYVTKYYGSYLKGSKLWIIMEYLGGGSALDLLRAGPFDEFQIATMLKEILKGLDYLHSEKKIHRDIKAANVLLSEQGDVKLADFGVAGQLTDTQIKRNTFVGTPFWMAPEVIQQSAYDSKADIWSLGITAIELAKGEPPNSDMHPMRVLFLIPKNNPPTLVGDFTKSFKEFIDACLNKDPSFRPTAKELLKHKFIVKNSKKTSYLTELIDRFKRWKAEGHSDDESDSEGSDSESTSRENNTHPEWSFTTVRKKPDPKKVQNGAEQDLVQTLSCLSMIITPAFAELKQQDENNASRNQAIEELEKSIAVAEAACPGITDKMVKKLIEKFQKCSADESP
# ΔTm annotations

- SMILES_STRING: "CN(C)C[C@@H]1CCn2cc(c3ccccc32)C2=C(C(=O)NC2=O)c2cn(c3ccccc23)CCO1"
  UNITS_OF_MEASURE: "°C"
  ΔTm: -2
- SMILES_STRING: "Cc1[nH]c(/C=C2\\C(=O)Nc3ccc(S(=O)(=O)N(C)c4cccc(Cl)c4)cc32)c(C)c1C(=O)N1CCN(C)CC1"
  UNITS_OF_MEASURE: "°C"
  ΔTm: 5
- SMILES_STRING: "O=c1c(-c2ccc(F)cc2)c(-c2ccncc2)[nH]n1-c1ccc(Cl)cc1"
  UNITS_OF_MEASURE: "°C"
  ΔTm: -0.5
- SMILES_STRING: "CCOc1cc(/C=C(\\C#N)C(N)=O)cc(CSc2ccccc2)c1O"
  UNITS_OF_MEASURE: "°C"
  ΔTm: -0.3
- SMILES_STRING: "CC[C@H](CO)Nc1nc(NCc2ccccc2)c2ncn(C(C)C)c2n1"
  UNITS_OF_MEASURE: "°C"
  ΔTm: 0.6
- SMILES_STRING: "O=C1NC(=O)C(c2cn(CCCn3ccnc3)c3ccccc23)=C1Nc1ccccc1"
  UNITS_OF_MEASURE: "°C"
  ΔTm: 2
- SMILES_STRING: "COc1cc2ncnc(Nc3cccc(Br)c3)c2cc1OC"
  UNITS_OF_MEASURE: "°C"
  ΔTm: 1.2
- SMILES_STRING: "O=C1Nc2ccc(I)cc2/C1=C\\c1cc(Br)c(O)c(Br)c1"
  UNITS_OF_MEASURE: "°C"
  ΔTm: -0.4
- SMILES_STRING: "COc1cc2ncnc(Nc3ccc(F)c(Cl)c3)c2cc1OCCCN1CCOCC1"
  UNITS_OF_MEASURE: "°C"
  ΔTm: 0
- SMILES_STRING: "CCOC(=O)c1cnc2oc3ccc(O)cc3c2c1-c1ccccc1"
  UNITS_OF_MEASURE: "°C"
  ΔTm: -0.2

###

- SYSTEM_NAME: Calcium/calmodulin-dependent protein kinase type II subunit delta (Homo sapiens)
# note: exactly -0.1 °C is not below, so it is false; use true for ΔTm strictly under it

- SMILES_STRING: "COc1ccc(COc2ccc(Cc3cnc(N)nc3N)cc2OC)cc1"
  SYSTEM_NAME: "Calcium/calmodulin-dependent protein kinase type II subunit delta (Homo sapiens)"
  QUALITATIVE_LABEL: "true"
- SMILES_STRING: "O=C1NC(=O)c2c1c1c3ccccc3n3c1c1c2c2ccccc2n1C1CCC3O1"
  SYSTEM_NAME: "Calcium/calmodulin-dependent protein kinase type II subunit delta (Homo sapiens)"
  QUALITATIVE_LABEL: "true"
- SMILES_STRING: "COc1cc(O)c2c(c1)oc(=O)c1c3cc(O)c(O)cc3oc21"
  SYSTEM_NAME: "Calcium/calmodulin-dependent protein kinase type II subunit delta (Homo sapiens)"
  QUALITATIVE_LABEL: "false"
- SMILES_STRING: "Cc1cc(Nc2nc(-c3ccccc3)nc3ccccc23)n[nH]1"
  SYSTEM_NAME: "Calcium/calmodulin-dependent protein kinase type II subunit delta (Homo sapiens)"
  QUALITATIVE_LABEL: "false"
- SMILES_STRING: "CCOc1cc(/C=C(\\C#N)C(N)=O)cc(CSc2ccccc2)c1O"
  SYSTEM_NAME: "Calcium/calmodulin-dependent protein kinase type II subunit delta (Homo sapiens)"
  QUALITATIVE_LABEL: "true"
- SMILES_STRING: "CCOC(=O)c1c(C)[nH]c(/C=C2\\C(=O)Nc3ccccc32)c1C"
  SYSTEM_NAME: "Calcium/calmodulin-dependent protein kinase type II subunit delta (Homo sapiens)"
  QUALITATIVE_LABEL: "false"
- SMILES_STRING: "CC(C)(C)c1nc2c3ccc(F)cc3c3c(=O)[nH]ccc3c2[nH]1"
  SYSTEM_NAME: "Calcium/calmodulin-dependent protein kinase type II subunit delta (Homo sapiens)"
  QUALITATIVE_LABEL: "false"
- SMILES_STRING: "COc1ccc(Cl)cc1NC(=O)Nc1cc(C)nc2ccccc12"
  SYSTEM_NAME: "Calcium/calmodulin-dependent protein kinase type II subunit delta (Homo sapiens)"
  QUALITATIVE_LABEL: "false"
- SMILES_STRING: "CN1CCC(Nc2ncc3ncnc(Nc4ccc(F)c(Cl)c4)c3n2)CC1"
  SYSTEM_NAME: "Calcium/calmodulin-dependent protein kinase type II subunit delta (Homo sapiens)"
  QUALITATIVE_LABEL: "false"
